Biological target: mAb 2C7
Test: Isothermal titration calorimetry (ITC)
Format: binding, Human-mouse chimeric
Conditions: one-site binding model, 20 °C, PBS pH 7.4, mAb 30 μM, 1.67 mM CP2, 19 injections of 2 μL
Method: Isothermal titration calorimetry (ITC) experiments were carried out at 20 °C by using a MicroCal PEAQ-ITC instrument. mAb and peptide CP2 were both dialyzed against PBS pH 7.4 to avoid buffer mismatch between solutions. […] The data were analyzed and fitted by using the one-binding site model. The standard thermodynamic parameters of equilibrium were calculated by the following equation[45]: [drawing 2] […]
Readout name: pKd
Friendly reminder that pKd comes from taking -log10 of the concentration in mol/L.

Measured on mAb 2C7, Br-Ac-Gly-Pro-Ile-Pro-Val-Leu-Asp-Glu-Asn-Gly-Leu-Phe-Ala-Pro-Gly-Pro-Cys-Lys-OH (sidechain bridge or staple) [CP2] has a documented pKd of 4.64
